Value source: ChEMBL document CHEMBL1150325

test system: Mycolicibacterium smegmatis; assay: Antibacterial activity against Mycobacterium smegmatis ATCC 14468 after 36 hrs visualized by MTT staining by broth macrodilution assay; type: functional; details: ATCC 14468, 36 h

[
  {
    "smiles_code": "CCCCCCSC[C@H]1O[C@@H](OC)[C@@H](O)[C@@H]1O",
    "MIC": "1020 µg/mL"
  },
  {
    "smiles_code": "NNC(=O)c1ccncc1",
    "MIC": "2 µg/mL"
  },
  {
    "smiles_code": "CCCCCCSC[C@H]1O[C@H](OC)[C@@H](O)[C@@H]1O",
    "MIC": "1020 µg/mL"
  },
  {
    "smiles_code": "CCCCCCCCSC[C@H]1O[C@@H](OC)[C@@H](O)[C@@H]1O",
    "MIC": "512 µg/mL"
  },
  {
    "smiles_code": "CCCCCCCCSC[C@H]1O[C@H](OC)[C@@H](O)[C@@H]1O",
    "MIC": "256 µg/mL"
  },
  {
    "smiles_code": "CCCCSC[C@H]1O[C@@H](OC)[C@@H](O)[C@@H]1O",
    "MIC": "> 1020 µg/mL"
  },
  {
    "smiles_code": "CCCCSC[C@H]1O[C@H](OC)[C@@H](O)[C@@H]1O",
    "MIC": "> 1020 µg/mL"
  }
]
